target: MAGL (Homo sapiens (Human), UniProt Q99685); assay: biochemical; details: read-out: MAGL (human) % inh. 1 μM
// inhibition at 1 µM lookup, one value per entry

[
  {
    "structureNotation": "NC(=O)c1cncc(OC(=O)N2CCC3(CCN(Cc4cc(Cl)cc(C(F)(F)F)c4)C3)CC2)c1",
    "measurementTarget": "MAGL (Homo sapiens (Human), UniProt Q99685)",
    "inhibition at 1 µM": "> 75%"
  },
  {
    "structureNotation": "Cc1c(C#N)cncc1OC(=O)N1CCN(Cc2cccc(C(F)(F)F)c2C)C[C@H]1C",
    "measurementTarget": "MAGL (Homo sapiens (Human), UniProt Q99685)",
    "inhibition at 1 µM": "> 75%"
  },
  {
    "structureNotation": "CC(=O)Nc1cncc(OC(=O)N2CCN(Cc3ccc(Cl)c(OC(C)C)c3)CC2)c1",
    "measurementTarget": "MAGL (Homo sapiens (Human), UniProt Q99685)",
    "inhibition at 1 µM": "> 75%"
  },
  {
    "structureNotation": "Cc1c(CN2CCN(C(=O)Oc3cncc(C(N)=O)c3)[C@H](C)C2)cccc1C(F)(F)F",
    "measurementTarget": "MAGL (Homo sapiens (Human), UniProt Q99685)",
    "inhibition at 1 µM": "> 75%"
  },
  {
    "structureNotation": "O=C(Oc1cncc(C(F)(F)F)c1)N1CCC2(CC1)CC(Oc1cccc(C(F)(F)F)c1)C2",
    "measurementTarget": "MAGL (Homo sapiens (Human), UniProt Q99685)",
    "inhibition at 1 µM": "> 75%"
  },
  {
    "structureNotation": "CC(C)Oc1cccc(CN2CC3(CCN(C(=O)Oc4cncc(C(F)(F)F)c4)CC3)C2)c1",
    "measurementTarget": "MAGL (Homo sapiens (Human), UniProt Q99685)",
    "inhibition at 1 µM": "25 to 50%"
  },
  {
    "structureNotation": "CC(C)Oc1cc(CN2CCN(C(=O)Oc3cncc(C(N)=O)c3)[C@@H](C)C2)ccc1Cl",
    "measurementTarget": "MAGL (Homo sapiens (Human), UniProt Q99685)",
    "inhibition at 1 µM": "> 75%"
  },
  {
    "structureNotation": "O=C(Oc1cncc(C(F)(F)F)c1)N1CCC2(CC1)CN(Cc1cc(Cl)cc(Oc3nc4ccccc4s3)c1)C2",
    "measurementTarget": "MAGL (Homo sapiens (Human), UniProt Q99685)",
    "inhibition at 1 µM": "> 75%"
  },
  {
    "structureNotation": "NC(=O)c1cncc(OC(=O)N2CCC3(CCN(Cc4ccc(Cl)c(Cl)c4)C3)CC2)c1",
    "measurementTarget": "MAGL (Homo sapiens (Human), UniProt Q99685)",
    "inhibition at 1 µM": "> 75%"
  },
  {
    "structureNotation": "O=C(Oc1cncc(C(F)(F)F)c1)N1CCC2(CC1)CN(Cc1cccc(Oc3ccccc3)c1Cl)C2",
    "measurementTarget": "MAGL (Homo sapiens (Human), UniProt Q99685)",
    "inhibition at 1 µM": "> 75%"
  },
  {
    "structureNotation": "C[C@@H]1CN(Cc2cccc(OC(F)(F)F)c2)CCN1C(=O)Oc1cncc(C(N)=O)c1",
    "measurementTarget": "MAGL (Homo sapiens (Human), UniProt Q99685)",
    "inhibition at 1 µM": "25 to 50%"
  },
  {
    "structureNotation": "O=C(Oc1cncc(C(F)(F)F)c1)N1CCC2(CC1)CC(Oc1cccc(COc3ccc(Cl)cc3)c1)C2",
    "measurementTarget": "MAGL (Homo sapiens (Human), UniProt Q99685)",
    "inhibition at 1 µM": "> 75%"
  },
  {
    "structureNotation": "O=C(Oc1cncc(C(F)(F)F)c1)N1CCC2(CC1)CC(Oc1cc(Cl)cc(Cl)c1)C2",
    "measurementTarget": "MAGL (Homo sapiens (Human), UniProt Q99685)",
    "inhibition at 1 µM": "> 75%"
  },
  {
    "structureNotation": "O=C(Oc1cncc(C(F)(F)F)c1)N1CCC2(CC1)CN(Cc1cccc(Oc3cncc(C(F)(F)F)c3)c1)C2",
    "measurementTarget": "MAGL (Homo sapiens (Human), UniProt Q99685)",
    "inhibition at 1 µM": "> 75%"
  },
  {
    "structureNotation": "O=C(Oc1cncc(C(F)(F)F)c1)N1CCC2(CC1)CN(Cc1cccc(Oc3nc4ccccc4s3)c1)C2",
    "measurementTarget": "MAGL (Homo sapiens (Human), UniProt Q99685)",
    "inhibition at 1 µM": "> 75%"
  },
  {
    "structureNotation": "Cc1c(OC(=O)N2CCN(Cc3cccc(C(F)(F)F)c3C)C[C@H]2C)cncc1C(N)=O",
    "measurementTarget": "MAGL (Homo sapiens (Human), UniProt Q99685)",
    "inhibition at 1 µM": "0 to 25%"
  }
]

* * *

target: FAAH (Homo sapiens (Human), UniProt O00519); test: biochemical; conditions: read-out: FAAH (human) IC50
pIC50: −log10 of the molar value.
recordedMetric: pIC50

[
  {
    "molecule": "NC(=O)c1cncc(OC(=O)N2CCC3(CC2)CN(Cc2cccc(Oc4ccc(Cl)cc4)c2)C3)c1 [Example 5]",
    "measurementTarget": "FAAH (Homo sapiens (Human), UniProt O00519)",
    "recordedMetric": "pIC50",
    "result": "> 7.00"
  },
  {
    "molecule": "O=C(Oc1cncc(C(F)(F)F)c1)N1CCC2(CC1)CN(Cc1cccc(Oc3ccccc3Cl)c1)C2 [Example 9]",
    "measurementTarget": "FAAH (Homo sapiens (Human), UniProt O00519)",
    "recordedMetric": "pIC50",
    "result": "6.00 to 7.00"
  },
  {
    "molecule": "C[C@@H]1CN(Cc2cccc(C(F)(F)F)c2Cl)CCN1C(=O)Oc1cncc(C(N)=O)c1 [Example 66]",
    "measurementTarget": "FAAH (Homo sapiens (Human), UniProt O00519)",
    "recordedMetric": "pIC50",
    "result": "> 7.00"
  },
  {
    "molecule": "NC(=O)c1cncc(OC(=O)N2CCC3(CCN(Cc4ccc(Cl)c(Cl)c4)C3)CC2)c1 [Example 36]",
    "measurementTarget": "FAAH (Homo sapiens (Human), UniProt O00519)",
    "recordedMetric": "pIC50",
    "result": "> 7.00"
  }
]

* * *

molecular target: MAGL (Homo sapiens (Human), UniProt Q99685); test: biochemical; details: read-out: MAGL (human) IC50
pIC50: −log10 of the molar value.
// pIC50 lookup, one value per entry
recordedMetric: pIC50

[
  {
    "structureNotation": "O=C(Oc1cncc(C(F)(F)F)c1)N1CCC2(CC1)CN(Cc1cccc(Oc3ccc(Cl)cc3)c1)C2",
    "result": "6.00 to 7.00"
  },
  {
    "structureNotation": "NC(=O)c1cncc(OC(=O)N2CCC3(CCN(Cc4ccc(Cl)c(Cl)c4)C3)CC2)c1",
    "result": "> 7.00"
  },
  {
    "structureNotation": "CC(C)Oc1ccc(CN2CCN(C(=O)Oc3cncc(C(N)=O)c3)CC2)c(OC(F)(F)F)c1",
    "result": "6.00 to 7.00"
  },
  {
    "structureNotation": "O=C(Oc1cncc(C(F)(F)F)c1)N1CCC2(CC1)CN(Cc1cccc(Oc3nc4ccccc4s3)c1)C2",
    "result": "> 7.00"
  },
  {
    "structureNotation": "Cc1c(C#N)cncc1OC(=O)N1CCN(Cc2cccc(C(F)(F)F)c2C)C[C@H]1C",
    "result": "6.00 to 7.00"
  },
  {
    "structureNotation": "C[C@@H]1CN(Cc2cc(F)cc(C(F)(F)F)c2)CCN1C(=O)Oc1cncc(C(N)=O)c1",
    "result": "> 7.00"
  },
  {
    "structureNotation": "CC(C)Oc1cc(CN2CCN(C(=O)Oc3cncc(NS(C)(=O)=O)c3)CC2)ccc1Cl",
    "result": "6.00 to 7.00"
  },
  {
    "structureNotation": "CC(C)Oc1cc(CN2CCN(C(=O)Oc3cncc(C(N)=O)c3)[C@H](C)C2)ccc1Cl",
    "result": "6.00 to 7.00"
  }
]

* * *

// inhibition at 1 µM lookup, one value per entry
target: MAGL (Homo sapiens (Human), UniProt Q99685); assay: biochemical; details: read-out: MAGL (human) % inh. 1 μM

[
  {
    "compound": "O=C(Oc1cncc(C(F)(F)F)c1)N1CCC2(CC1)CC(Oc1cc(Cl)ccc1Cl)C2 [Example 27]",
    "inhibition at 1 µM": "> 75%"
  },
  {
    "compound": "NC(=O)c1cncc(OC(=O)N2CCC3(CCN(Cc4cc(Cl)ccc4C(F)(F)F)C3)CC2)c1 [Example 4]",
    "inhibition at 1 µM": "> 75%"
  },
  {
    "compound": "CC1CCCN1c1ccc(CN2CCN(C(=O)Oc3cncc(C(N)=O)c3)CC2)c(OC(F)(F)F)c1 (centres unmarked) [Example 17]",
    "inhibition at 1 µM": "> 75%"
  },
  {
    "compound": "C[C@@H]1CN(Cc2cc(Cl)cc(Oc3ncccn3)c2)CCN1C(=O)Oc1cncc(C#N)c1 [Example 86]",
    "inhibition at 1 µM": "> 75%"
  },
  {
    "compound": "O=C(Oc1cncc(C(F)(F)F)c1)N1CCC2(CC1)CN(Cc1cccc(Oc3cc(Cl)cc(Cl)c3)c1)C2 [Example 35]",
    "inhibition at 1 µM": "> 75%"
  },
  {
    "compound": "O=C(Oc1cncc(C(F)(F)F)c1)N1CCC2(CC1)CC(Oc1ccc(-c3ccccc3)cc1)C2 [Example 28]",
    "inhibition at 1 µM": "> 75%"
  },
  {
    "compound": "C[C@@H]1CN(Cc2cccc(C(F)(F)F)c2Cl)CCN1C(=O)Oc1cncc(C(N)=O)c1 [Example 66]",
    "inhibition at 1 µM": "> 75%"
  },
  {
    "compound": "O=C(Oc1cncc(C(F)(F)F)c1)N1CCN(Cc2cc(Cl)ccc2C(F)(F)F)CC1 [Example 44]",
    "inhibition at 1 µM": "> 75%"
  },
  {
    "compound": "O=C(Oc1cncc(C(F)(F)F)c1)N1CCC2(CC1)CN(Cc1cccc(Oc3ccc(C(F)(F)F)nc3)c1)C2 [Example 39]",
    "inhibition at 1 µM": "> 75%"
  },
  {
    "compound": "O=C(Oc1cncc(C(F)(F)F)c1)N1CCC2(CC1)CN(Cc1cccc(Oc3cccc(Cl)c3)c1Cl)C2 [Example 40]",
    "inhibition at 1 µM": "> 75%"
  },
  {
    "compound": "CC(C)Oc1cc(CN2CCN(C(=O)Oc3cncc(NS(C)(=O)=O)c3)CC2)ccc1Cl [Example 15]",
    "inhibition at 1 µM": "> 75%"
  },
  {
    "compound": "CC(C)Oc1ccc(CN2CCN(C(=O)Oc3cncc(C(N)=O)c3)CC2)c(OC(F)(F)F)c1 [Example 18]",
    "inhibition at 1 µM": "> 75%"
  },
  {
    "compound": "O=C(Oc1cncc(C(F)(F)F)c1)N1CCC2(CC1)CN(Cc1ccc(Cl)c(Oc3ccccc3)c1Cl)C2 [Example 14]",
    "inhibition at 1 µM": "> 75%"
  },
  {
    "compound": "C[C@@H]1CN(Cc2cccc(Oc3ncccn3)c2)CCN1C(=O)Oc1cncc(C#N)c1 [Example 84]",
    "inhibition at 1 µM": "> 75%"
  },
  {
    "compound": "NC(=O)c1cncc(OC(=O)N2CCC3(CC2)CN(Cc2cccc(Oc4ccc(Cl)cc4)c2)C3)c1 [Example 5]",
    "inhibition at 1 µM": "> 75%"
  },
  {
    "compound": "C[C@@H]1CN(Cc2cc(F)cc(C(F)(F)F)c2)CCN1C(=O)Oc1cncc(C(N)=O)c1 [Example 20]",
    "inhibition at 1 µM": "> 75%"
  },
  {
    "compound": "O=C(Oc1cncc(C(F)(F)F)c1)N1CCC2(CC1)CN(Cc1cccc(Oc3cccc(C(F)(F)F)n3)c1)C2 [Example 12]",
    "inhibition at 1 µM": "> 75%"
  },
  {
    "compound": "N#Cc1cncc(OC(=O)N2CCN(Cc3cccc(Oc4ncccn4)c3)CC2)c1 [Example 50]",
    "inhibition at 1 µM": "> 75%"
  },
  {
    "compound": "O=C(Oc1cncc(C(F)(F)F)c1)N1CCC2(CC1)CN(Cc1cccc(Oc3ccnnc3)c1)C2 [Example 33]",
    "inhibition at 1 µM": "50 to 75%"
  },
  {
    "compound": "Cc1c(CN2CCN(C(=O)Oc3cncc(C(N)=O)c3)[C@@H](C)C2)cccc1C(F)(F)F [Example 59]",
    "inhibition at 1 µM": "> 75%"
  }
]

Values compiled from patent US11129827B2.
